Collected Ki values appear next to each entry.
# SYSTEM TESTED: D2 (Homo sapiens)
# Sequence (P14416 whole entry): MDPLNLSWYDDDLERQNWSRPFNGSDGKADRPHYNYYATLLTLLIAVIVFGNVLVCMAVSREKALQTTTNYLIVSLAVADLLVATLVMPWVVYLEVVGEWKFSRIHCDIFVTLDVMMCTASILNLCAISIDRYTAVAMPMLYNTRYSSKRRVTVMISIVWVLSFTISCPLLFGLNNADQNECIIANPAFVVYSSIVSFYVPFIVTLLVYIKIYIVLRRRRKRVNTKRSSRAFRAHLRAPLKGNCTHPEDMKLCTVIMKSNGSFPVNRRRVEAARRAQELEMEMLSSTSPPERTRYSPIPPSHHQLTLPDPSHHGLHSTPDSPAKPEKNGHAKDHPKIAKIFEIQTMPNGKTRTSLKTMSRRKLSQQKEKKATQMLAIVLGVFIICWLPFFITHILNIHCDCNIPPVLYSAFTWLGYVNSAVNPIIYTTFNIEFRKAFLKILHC
# EXPERIMENT NOTES: Radioligand displacement, D2
# Type: binding

Oc1ccc2c3c1O[C@H]1c4[nH]c5c(c4C[C@@]4(O)[C@@H](C2)N(CC2CC2)CC[C@]314)C[C@@]1(O)[C@H]2Cc3ccc(O)c4c3[C@@]1(CCN2CC1CC1)[C@H]5O4: ≥ 10 µM

Here is the next item to consider.
Provide the documented Ki with D2 (Homo sapiens) as the system for N=C(N)Nc1ccc2[nH]c3c(c2c1)C[C@@]1(O)[C@H]2Cc4ccc(O)c5c4[C@@]1(CCN2CC1CC1)[C@H]3O5 ≥ 10 µM

---

# SYSTEM TESTED: β2 (Homo sapiens)
# Sequence (P07550 whole entry): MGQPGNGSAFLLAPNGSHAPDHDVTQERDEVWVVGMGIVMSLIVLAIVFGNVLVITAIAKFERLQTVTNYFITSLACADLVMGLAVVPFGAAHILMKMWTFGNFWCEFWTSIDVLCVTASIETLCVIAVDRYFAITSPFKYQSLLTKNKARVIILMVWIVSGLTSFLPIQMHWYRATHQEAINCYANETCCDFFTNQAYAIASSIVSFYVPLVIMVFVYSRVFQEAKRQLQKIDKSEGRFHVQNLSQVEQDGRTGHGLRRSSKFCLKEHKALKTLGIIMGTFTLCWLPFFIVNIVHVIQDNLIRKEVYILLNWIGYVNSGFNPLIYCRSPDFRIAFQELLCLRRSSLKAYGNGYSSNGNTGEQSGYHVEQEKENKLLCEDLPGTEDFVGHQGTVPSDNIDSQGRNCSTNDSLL
# EXPERIMENT NOTES: Radioligand displacement, β2
# Format: binding
# STUDY CONDITIONS: [3H] radioligand CGP12177; Human, Cloned; read-out: Ki
READOUT: Ki

Which value of Ki has been reported for CC(C)[C@@H](CN1CC[C@@](C)(c2cccc(O)c2)[C@@H](C)C1)NC(=O)[C@H]1Cc2ccc(O)cc2CN1 [JDTic] in the records? ≥ 10 µM

---

# SYSTEM TESTED: noradrenaline (norepinephrine) transporter (NET) (Homo sapiens)
# Sequence (P23975 whole entry): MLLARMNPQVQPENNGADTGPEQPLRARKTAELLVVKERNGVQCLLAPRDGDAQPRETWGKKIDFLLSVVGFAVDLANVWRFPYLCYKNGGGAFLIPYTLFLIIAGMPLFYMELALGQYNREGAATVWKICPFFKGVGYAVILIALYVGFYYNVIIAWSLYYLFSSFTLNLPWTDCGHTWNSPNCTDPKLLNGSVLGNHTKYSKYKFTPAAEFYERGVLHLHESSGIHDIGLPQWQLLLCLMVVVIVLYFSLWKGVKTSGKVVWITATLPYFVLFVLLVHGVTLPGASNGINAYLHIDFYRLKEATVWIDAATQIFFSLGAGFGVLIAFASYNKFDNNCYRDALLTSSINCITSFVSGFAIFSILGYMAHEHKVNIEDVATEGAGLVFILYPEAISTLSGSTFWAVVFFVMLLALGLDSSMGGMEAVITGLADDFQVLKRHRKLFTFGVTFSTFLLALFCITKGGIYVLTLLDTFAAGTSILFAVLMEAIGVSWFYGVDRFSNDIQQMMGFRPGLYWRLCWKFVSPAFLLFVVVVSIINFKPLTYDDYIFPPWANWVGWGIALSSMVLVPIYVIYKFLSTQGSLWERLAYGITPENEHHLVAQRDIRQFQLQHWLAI
# EXPERIMENT NOTES: Radioligand displacement, NET
# Format: binding
# STUDY CONDITIONS: NET; versus [3H]nisoxetine (Table 1); read-out: K i
READOUT: Ki

Which value of Ki has been reported for CC(C)[C@@H](CN1CC[C@@](C)(c2cccc(O)c2)[C@@H](C)C1)NC(=O)[C@H]1Cc2ccc(O)cc2CN1 in the records? 54 nM

---

# SYSTEM TESTED: 5-HT1d (Homo sapiens, UniProt P28221)
# Sequence (P28221 whole entry): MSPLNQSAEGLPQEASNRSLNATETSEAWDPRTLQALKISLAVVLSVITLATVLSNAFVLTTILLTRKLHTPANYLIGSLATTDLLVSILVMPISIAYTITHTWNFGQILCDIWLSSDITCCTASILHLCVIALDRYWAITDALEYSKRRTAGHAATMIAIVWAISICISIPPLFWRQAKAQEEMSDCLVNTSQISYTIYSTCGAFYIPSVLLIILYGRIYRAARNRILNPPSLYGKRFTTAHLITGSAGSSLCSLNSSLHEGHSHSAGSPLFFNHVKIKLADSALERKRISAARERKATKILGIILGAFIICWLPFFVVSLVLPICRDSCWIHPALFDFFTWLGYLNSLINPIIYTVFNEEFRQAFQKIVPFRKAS
# EXPERIMENT NOTES: Radioligand displacement, 5-HT1d
# STUDY CONDITIONS: Ki, [3H] radioligand GR125743; Human, Cloned
READOUT: Ki (nM)
Numbers only here, please. The scale is nM.

Which value of Ki has been reported for Oc1ccc2c3c1O[C@H]1c4[nH]c5c(c4C[C@@]4(O)[C@@H](C2)N(CC2CC2)CC[C@]314)C[C@@]1(O)[C@H]2Cc3ccc(O)c4c3[C@@]1(CCN2CC1CC1)[C@H]5O4 [nor-BNI, Nor-binaltorphimine] in the records? 1130

---

# SYSTEM TESTED: M5 (Homo sapiens, UniProt P08912)
# Sequence (P08912 whole entry): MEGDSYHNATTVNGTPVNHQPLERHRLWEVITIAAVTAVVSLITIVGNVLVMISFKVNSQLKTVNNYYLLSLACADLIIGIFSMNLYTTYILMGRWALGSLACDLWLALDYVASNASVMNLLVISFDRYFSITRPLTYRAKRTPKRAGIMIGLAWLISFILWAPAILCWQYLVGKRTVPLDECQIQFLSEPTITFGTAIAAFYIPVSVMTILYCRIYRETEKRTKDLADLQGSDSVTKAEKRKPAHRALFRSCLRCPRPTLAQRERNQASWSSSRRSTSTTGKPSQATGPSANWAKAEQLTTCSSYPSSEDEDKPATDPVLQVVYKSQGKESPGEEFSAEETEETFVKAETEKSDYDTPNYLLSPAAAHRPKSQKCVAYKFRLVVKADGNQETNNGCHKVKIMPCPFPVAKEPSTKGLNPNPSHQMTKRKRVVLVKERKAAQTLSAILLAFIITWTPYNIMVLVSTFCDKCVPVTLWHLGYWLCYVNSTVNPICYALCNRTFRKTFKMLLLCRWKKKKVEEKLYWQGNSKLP
# EXPERIMENT NOTES: Radioligand displacement, M5
# Type: binding
Collected Ki values appear next to each entry.

Oc1ccc2c3c1O[C@H]1c4[nH]c5c(c4C[C@@]4(O)[C@@H](C2)N(CC2CC2)CC[C@]314)C[C@@]1(O)[C@H]2Cc3ccc(O)c4c3[C@@]1(CCN2CC1CC1)[C@H]5O4 [nor-BNI, Nor-binaltorphimine]: ≥ 10 µM

Here is the next item to consider.
Which value of Ki has been reported for N=C(N)Nc1ccc2[nH]c3c(c2c1)C[C@@]1(O)[C@H]2Cc4ccc(O)c5c4[C@@]1(CCN2CC1CC1)[C@H]3O5 [GNTI, 5′-guanidinonaltrindole] in the records? ≥ 10 µM

---

# SYSTEM TESTED: M4 (Homo sapiens, UniProt P08173)
# Sequence (P08173 whole entry): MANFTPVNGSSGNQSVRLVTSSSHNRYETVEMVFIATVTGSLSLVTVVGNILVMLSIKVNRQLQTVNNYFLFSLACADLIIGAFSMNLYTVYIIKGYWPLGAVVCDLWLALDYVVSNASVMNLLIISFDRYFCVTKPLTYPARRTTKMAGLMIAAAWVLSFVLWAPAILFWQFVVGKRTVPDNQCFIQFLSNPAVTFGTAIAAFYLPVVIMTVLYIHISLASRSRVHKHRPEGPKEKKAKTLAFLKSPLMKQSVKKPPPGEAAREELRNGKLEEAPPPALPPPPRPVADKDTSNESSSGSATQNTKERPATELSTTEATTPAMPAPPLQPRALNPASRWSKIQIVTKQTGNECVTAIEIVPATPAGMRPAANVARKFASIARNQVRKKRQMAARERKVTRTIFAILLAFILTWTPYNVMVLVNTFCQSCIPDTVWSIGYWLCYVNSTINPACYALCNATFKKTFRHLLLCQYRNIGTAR
# EXPERIMENT NOTES: Radioligand displacement, M4
# Assay type: binding
READOUT: Ki

Oc1ccc2c3c1O[C@H]1c4[nH]c5c(c4C[C@@]4(O)[C@@H](C2)N(CC2CC2)CC[C@]314)C[C@@]1(O)[C@H]2Cc3ccc(O)c4c3[C@@]1(CCN2CC1CC1)[C@H]5O4: ≥ 10 µM

Here is the next item to consider.
Which value of Ki has been reported for N=C(N)Nc1ccc2[nH]c3c(c2c1)C[C@@]1(O)[C@H]2Cc4ccc(O)c5c4[C@@]1(CCN2CC1CC1)[C@H]3O5 in the records? ≥ 10 µM

---

# SYSTEM TESTED: 5-HT7 (Homo sapiens, UniProt P34969)
# Sequence (P34969 whole entry): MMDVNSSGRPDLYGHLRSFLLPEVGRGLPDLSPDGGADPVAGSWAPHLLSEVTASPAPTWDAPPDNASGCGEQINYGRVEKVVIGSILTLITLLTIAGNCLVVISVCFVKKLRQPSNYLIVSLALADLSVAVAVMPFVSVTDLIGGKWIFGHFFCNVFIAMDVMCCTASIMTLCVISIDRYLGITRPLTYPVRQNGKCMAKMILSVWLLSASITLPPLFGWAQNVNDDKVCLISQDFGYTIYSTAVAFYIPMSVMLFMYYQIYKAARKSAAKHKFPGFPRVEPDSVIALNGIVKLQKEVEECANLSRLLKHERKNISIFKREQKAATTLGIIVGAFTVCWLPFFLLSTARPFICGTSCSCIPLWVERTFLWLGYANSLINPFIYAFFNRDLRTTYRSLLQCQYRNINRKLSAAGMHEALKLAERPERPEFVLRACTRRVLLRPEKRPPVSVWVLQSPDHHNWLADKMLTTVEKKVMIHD
# EXPERIMENT NOTES: Radioligand displacement, 5-HT7
# Format: binding
# STUDY CONDITIONS: [3H] radioligand LSD; Human, Cloned; read-out: Ki
READOUT: Ki

Which value of Ki has been reported for CC(C)[C@@H](CN1CC[C@@](C)(c2cccc(O)c2)[C@@H](C)C1)NC(=O)[C@H]1Cc2ccc(O)cc2CN1 [JDTic] in the records? ≥ 10 µM

---

# SYSTEM TESTED: H3 (Cavia porcellus, UniProt Q9JI35)
# Sequence (Q9JI35 whole entry): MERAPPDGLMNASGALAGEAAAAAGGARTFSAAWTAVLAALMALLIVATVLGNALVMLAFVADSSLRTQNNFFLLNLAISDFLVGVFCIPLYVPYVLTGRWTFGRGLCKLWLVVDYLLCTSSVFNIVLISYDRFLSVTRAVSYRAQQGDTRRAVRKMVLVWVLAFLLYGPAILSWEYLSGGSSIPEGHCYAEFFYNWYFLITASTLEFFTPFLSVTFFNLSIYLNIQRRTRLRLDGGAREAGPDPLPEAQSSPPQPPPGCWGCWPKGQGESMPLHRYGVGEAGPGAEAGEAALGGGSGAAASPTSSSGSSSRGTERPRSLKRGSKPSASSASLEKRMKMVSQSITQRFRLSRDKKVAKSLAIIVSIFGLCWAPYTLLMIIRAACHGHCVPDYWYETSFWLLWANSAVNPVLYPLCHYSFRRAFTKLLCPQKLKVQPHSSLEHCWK
# EXPERIMENT NOTES: Radioligand displacement, H3
# Format: binding, Guinea Pig
READOUT: Ki

Oc1ccc2c3c1O[C@H]1c4[nH]c5c(c4C[C@@]4(O)[C@@H](C2)N(CC2CC2)CC[C@]314)C[C@@]1(O)[C@H]2Cc3ccc(O)c4c3[C@@]1(CCN2CC1CC1)[C@H]5O4 [nor-BNI, Nor-binaltorphimine]: ≥ 10 µM

Here is the next item to consider.
Which value of Ki has been reported for N=C(N)Nc1ccc2[nH]c3c(c2c1)C[C@@]1(O)[C@H]2Cc4ccc(O)c5c4[C@@]1(CCN2CC1CC1)[C@H]3O5 [GNTI, 5′-guanidinonaltrindole] in the records? ≥ 10 µM

---

# SYSTEM TESTED: H3 (Cavia porcellus, UniProt Q9JI35)
# EXPERIMENT NOTES: Radioligand displacement, H3
# Format: binding, Guinea Pig
# STUDY CONDITIONS: [3H] radioligand α-methylhistamine; Guinea Pig, Cloned; read-out: Ki
READOUT: Ki

Which value of Ki has been reported for CC(C)[C@@H](CN1CC[C@@](C)(c2cccc(O)c2)[C@@H](C)C1)NC(=O)[C@H]1Cc2ccc(O)cc2CN1 [JDTic] in the records? ≥ 10 µM

---

# SYSTEM TESTED: M2 (Homo sapiens, UniProt P08172)
# EXPERIMENT NOTES: biochemical
# Assay type: binding
# STUDY CONDITIONS: Ki, binding curve File S1; M2 Receptor; [3H]QNB (0.1 nM); Muscarinic Binding Buffer
READOUT: Ki (µM)
Numbers only here, please. The scale is µM.

Which value of Ki has been reported for N=C(N)Nc1ccc2[nH]c3c(c2c1)C[C@@]1(O)[C@H]2Cc4ccc(O)c5c4[C@@]1(CCN2CC1CC1)[C@H]3O5 [GNTI, 5′-guanidinonaltrindole] in the records? 5.36

---

Collected Papp A→B at 120 min values appear next to each entry.
# EXPERIMENT NOTES: Caco-2 cell monolayer permeation
# STUDY CONDITIONS: human, Caco-2, pH 7.4
Numbers only here, please. The scale is ×10⁻⁶ cm/s.

Below, each entry is followed by its recorded Papp A→B at 120 min result.
CC(C)[C@@H](CN1CC[C@@](C)(c2cccc(O)c2)[C@@H](C)C1)NC(=O)[C@H]1Cc2ccc(O)cc2CN1: 60
O=C1CC[C@@]2(O)[C@H]3Cc4ccc(O)c5c4[C@@]2(CCN3CC2CC2)[C@H]1O5 [Naltrexone]: 59
Oc1ccc2c3c1O[C@H]1c4[nH]c5c(c4C[C@@]4(O)[C@@H](C2)N(CC2CC2)CC[C@]314)C[C@@]1(O)[C@H]2Cc3ccc(O)c4c3[C@@]1(CCN2CC1CC1)[C@H]5O4: 51

Here is the next item to consider.
Which value of Papp A→B at 120 min has been reported for N=C(N)Nc1ccc2[nH]c3c(c2c1)C[C@@]1(O)[C@H]2Cc4ccc(O)c5c4[C@@]1(CCN2CC1CC1)[C@H]3O5 in the records? 88

---

# SYSTEM TESTED: M5 (Homo sapiens)
# EXPERIMENT NOTES: Radioligand displacement, M5
# Type: binding
# STUDY CONDITIONS: [3H] radioligand QNB; Human, Cloned; read-out: Ki
pKi: −log10 of the molar value.
READOUT: pKi

Provide the documented pKi with M5 (Homo sapiens) as the system for CC(C)[C@@H](CN1CC[C@@](C)(c2cccc(O)c2)[C@@H](C)C1)NC(=O)[C@H]1Cc2ccc(O)cc2CN1 [JDTic] ≤ 5.00

---

# SYSTEM TESTED: human NOP (Homo sapiens, UniProt P41146)
# Construct: expressed in transfected cells; host or cells: HEK293T
# Sequence (P41146 whole entry): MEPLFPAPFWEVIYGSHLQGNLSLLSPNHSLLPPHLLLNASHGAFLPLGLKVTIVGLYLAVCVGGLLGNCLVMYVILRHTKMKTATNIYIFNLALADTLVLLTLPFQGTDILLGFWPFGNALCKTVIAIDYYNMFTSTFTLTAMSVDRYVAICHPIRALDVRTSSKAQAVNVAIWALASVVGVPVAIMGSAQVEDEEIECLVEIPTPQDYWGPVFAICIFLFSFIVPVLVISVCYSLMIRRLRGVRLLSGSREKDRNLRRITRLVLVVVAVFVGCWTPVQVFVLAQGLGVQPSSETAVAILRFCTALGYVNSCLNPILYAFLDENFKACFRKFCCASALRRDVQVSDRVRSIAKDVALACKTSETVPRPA
# EXPERIMENT NOTES: NOP binding against [3H]N/OFQ, HEK293T membranes
# STUDY CONDITIONS: NOP; displacing [3H]N/OFQ (Table 1); read-out: K i
READOUT: pKi
Schema: pKi number; meaning minus log10 of the concentration expressed in molar units.

Which value of pKi has been reported for CC(C)[C@@H](CN1CC[C@@](C)(c2cccc(O)c2)[C@@H](C)C1)NC(=O)[C@H]1Cc2ccc(O)cc2CN1 [JDTic] in the records? 7.92

---

# SYSTEM TESTED: α1B (Homo sapiens, UniProt P35368)
# Sequence (P35368 whole entry): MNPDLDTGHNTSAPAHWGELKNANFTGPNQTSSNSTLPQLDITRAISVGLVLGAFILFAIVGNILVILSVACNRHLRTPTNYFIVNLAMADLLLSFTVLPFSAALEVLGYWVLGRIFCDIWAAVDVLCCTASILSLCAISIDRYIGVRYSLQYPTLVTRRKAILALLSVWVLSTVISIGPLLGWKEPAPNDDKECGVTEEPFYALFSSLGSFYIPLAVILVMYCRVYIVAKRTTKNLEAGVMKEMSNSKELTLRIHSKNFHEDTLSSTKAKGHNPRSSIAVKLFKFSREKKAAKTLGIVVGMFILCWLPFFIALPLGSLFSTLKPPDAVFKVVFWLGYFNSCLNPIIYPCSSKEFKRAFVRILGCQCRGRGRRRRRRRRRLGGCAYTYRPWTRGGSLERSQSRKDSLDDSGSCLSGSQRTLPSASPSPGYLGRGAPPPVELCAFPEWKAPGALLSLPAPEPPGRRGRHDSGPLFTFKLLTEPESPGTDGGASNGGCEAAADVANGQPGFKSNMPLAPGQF
# EXPERIMENT NOTES: Radioligand displacement, α1B
# Format: binding
# STUDY CONDITIONS: Ki, [3H] radioligand Prazosin; Human, Cloned
Collected Ki values appear next to each entry.

Oc1ccc2c3c1O[C@H]1c4[nH]c5c(c4C[C@@]4(O)[C@@H](C2)N(CC2CC2)CC[C@]314)C[C@@]1(O)[C@H]2Cc3ccc(O)c4c3[C@@]1(CCN2CC1CC1)[C@H]5O4: ≥ 10 µM

Which value of Ki has been reported for N=C(N)Nc1ccc2[nH]c3c(c2c1)C[C@@]1(O)[C@H]2Cc4ccc(O)c5c4[C@@]1(CCN2CC1CC1)[C@H]3O5 in the records? 8.9 µM
